B1: CPEB3 Ribozyme (parent)
chain: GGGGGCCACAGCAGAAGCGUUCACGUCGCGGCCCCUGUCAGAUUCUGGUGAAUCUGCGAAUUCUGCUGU

Variants of: B1
Assay: self-cleavage, relative activity (ratio to wild type); higher = more cleavage; co-transcriptional
# self-cleavage values compiled below
Give the value as a plain number.

Here's what some known entries look like.
>>> endpoint_value("GGGGGCCACAGCAGAAGCGUUCACGUCGCGGCCCCCGUCAGAUUCUGGUGAAUCUACGAAUUCUGCUGU [U36C G56A]")
0.814
>>> endpoint_value("GGGGGCCACAGCAGAAGCGUUCACGUCGCGGCCCCUGUCAGAUUCUAGUGAAUCUGCGAAUUCUCCUGU [G47A G65C]")
0.79
>>> endpoint_value("GGGGGCCACAGCAGAAGGGUUCACGUCGCGGUCCCUGUCAGAUUCUGGUGAAUCUGCGAAUUCUGCUGU [C18G C32U]")
0.195
>>> endpoint_value("GGGGGCAACAGCAGAAGCGUUCACGUCGCGGCCCCUGUCAGAUUCUGGUGAAUCUGCGAAUUCUUCUGU [C7A G65U]")
0.198
>>> endpoint_value("GGGGGCCACAGCAGAAGCGUUCACGUCGCGGCCGCCGUCAGAUUCUGGUGAAUCUGCGAAUUCUGCUGU [C34G U36C]")
0.819

In the following, a different variant is considered.
Just so you know, measured self-cleavage for GGGGGCCACUGCAGAAGCGUUCACGUCGCGGCCCCUUUCAGAUUCUGGUGAAUCUGCGAAUUCUGCUGU [A10U G37U] came out at 0.203
